Task for the reader: assign each of the following compounds its reported IC50.
Test system: PLC5 cells (a hepatocellular carcinoma cell line)
Assay: Cytotoxicity, MTT cell viability assay
Format: cell-based
Settings: 72 h exposure
Answer format: numeric, nM implied, no suffix.

Form: item Cc1ccc(NC(=O)Nc2ccc(C)c(Oc3ccc(C#N)c(Br)c3)c2)cc1Oc1ccc(C#N)c(Br)c1 ; test system PLC5 cells (a hepatocellular carcinoma cell line); IC50: 250

Form: item N#Cc1ccc(Oc2ccc3cccc(NC(=O)Nc4ccc(Cl)c(C(F)(F)F)c4)c3c2)cc1 ; test system PLC5 cells (a hepatocellular carcinoma cell line); IC50: 2250

Form: item N#CCc1ccc(Oc2ccc(NC(=O)Nc3ccc(Cl)c(C(F)(F)F)c3)cc2)cc1 ; test system PLC5 cells (a hepatocellular carcinoma cell line); IC50: 880

Form: item Cc1cc(Oc2cc(NC(=O)Nc3ccc(C)c(Oc4ccc(C#N)nc4)c3)ccc2C)ccc1C#N ; test system PLC5 cells (a hepatocellular carcinoma cell line); IC50: 160

* * *

Tested on: PLC5 cells (a hepatocellular carcinoma cell line)
Assay: Cytotoxicity, MTT cell viability assay
Type: cell-based
Settings: 72 h exposure
PROPERTY: pIC50
Please note pIC50 is a logarithmic value: minus log10 of concentration in mol/L. Answer with that number alone.

// pIC50 value for N#Cc1ccc(Oc2cccc(NC(=O)Nc3ccc(Cl)c(C(F)(F)F)c3)c2)cc1Cl [compound 79] : 6.09

// pIC50 value for CC1=CCC(NC(=O)C(=O)Nc2ccc(C)c(Oc3ccc(C#N)cc3)c2)C=C1OC1C=CC(C#N)=CC1 (stereo not shown) [compound 71] : 6.68

// pIC50 value for Cc1ccc(NC(=O)Nc2ccc(C)c(Oc3ccc(C#N)c(Cl)c3)c2)cc1Oc1ccc(C#N)c(Cl)c1 [compound 82] : 5.38

* * *

Molecular target: Recombinant SHP-1 protein (Homo sapiens)
Sequence (P29350 whole entry): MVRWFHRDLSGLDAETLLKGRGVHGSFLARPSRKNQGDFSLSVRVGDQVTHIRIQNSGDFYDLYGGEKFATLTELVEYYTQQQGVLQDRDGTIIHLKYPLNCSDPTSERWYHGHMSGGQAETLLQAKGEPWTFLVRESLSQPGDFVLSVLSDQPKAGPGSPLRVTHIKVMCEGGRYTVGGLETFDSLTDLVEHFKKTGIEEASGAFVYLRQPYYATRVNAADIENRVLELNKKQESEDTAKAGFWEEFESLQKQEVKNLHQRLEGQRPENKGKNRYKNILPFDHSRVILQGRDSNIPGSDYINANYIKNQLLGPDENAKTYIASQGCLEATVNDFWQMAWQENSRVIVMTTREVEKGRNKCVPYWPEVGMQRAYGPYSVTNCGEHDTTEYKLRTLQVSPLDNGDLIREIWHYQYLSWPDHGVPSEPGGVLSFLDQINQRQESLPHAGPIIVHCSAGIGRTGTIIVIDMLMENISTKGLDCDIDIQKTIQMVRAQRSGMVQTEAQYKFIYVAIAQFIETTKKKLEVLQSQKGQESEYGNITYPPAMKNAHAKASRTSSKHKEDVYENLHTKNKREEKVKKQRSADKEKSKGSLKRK
Test: SHP-1 phosphatase activity assay (RediPlate 96 EnzChek Tyrosine Phosphatase Assay kit)
Format: biochemical
Details: SC derivatives at 1 μM for 2 hr; recombinant SHP-1 25 ng; control DMSO = 100; mean±SD (N=3)
PROPERTY: SHP-1 Activity (% of control)

Form: item Cc1ccc(NC(=O)Nc2cccc3ccc(Oc4ccc(C#N)cc4)cc23)cc1Oc1ccc(C#N)cc1 ; test system Recombinant SHP-1 protein (Homo sapiens); SHP-1 Activity (% of control): 149.03 ± 14.47 % of control

Form: item Cc1ccc(NC(=O)Nc2ccc(Cl)c(C(F)(F)F)c2)cc1Oc1ccc(C#N)c(Br)c1 ; test system Recombinant SHP-1 protein (Homo sapiens); SHP-1 Activity (% of control): 143.45 ± 15.17 % of control

Form: item Cc1ccc(NC(=O)Nc2cc(C(F)(F)F)cc(C(F)(F)F)c2)cc1Oc1ccc(C#N)cc1 ; test system Recombinant SHP-1 protein (Homo sapiens); SHP-1 Activity (% of control): 327.86 ± 34.79 % of control

Form: item N#Cc1ccc(Oc2cc(NC(=O)Nc3ccc(Cl)c(Oc4ccc(C#N)cc4)c3)ccc2Cl)cc1 ; test system Recombinant SHP-1 protein (Homo sapiens); SHP-1 Activity (% of control): 252.27 ± 10.78 % of control

Form: item O=C(Nc1ccc(Cl)c(C(F)(F)F)c1)Nc1ccc(Cl)c(C(F)(F)F)c1 ; test system Recombinant SHP-1 protein (Homo sapiens); SHP-1 Activity (% of control): 113.65 ± 13.93 % of control

Form: item Cc1ccc(NC(=O)Nc2cc(Oc3ccc(C#N)cc3)ccc2F)cc1Oc1ccc(C#N)nc1 ; test system Recombinant SHP-1 protein (Homo sapiens); SHP-1 Activity (% of control): 146.29 ± 12.80 % of control

Form: item Cc1ccc(NC(=O)Nc2ccc(C)c(Oc3ccc(C#N)c(Cl)c3)c2)cc1Oc1ccc(C#N)c(Cl)c1 ; test system Recombinant SHP-1 protein (Homo sapiens); SHP-1 Activity (% of control): 92.68 ± 5.66 % of control

Form: item C#Cc1cccc(NC(=O)Nc2cc(Oc3ccc(C#N)cc3)ccc2F)c1 ; test system Recombinant SHP-1 protein (Homo sapiens); SHP-1 Activity (% of control): 159.94 ± 30.14 % of control
